- Measured target: hERG (Homo sapiens, UniProt Q12809)
- Construct: host or cells: HEK293 cells stably overexpressing hERG
- Sequence (Q12809 whole entry): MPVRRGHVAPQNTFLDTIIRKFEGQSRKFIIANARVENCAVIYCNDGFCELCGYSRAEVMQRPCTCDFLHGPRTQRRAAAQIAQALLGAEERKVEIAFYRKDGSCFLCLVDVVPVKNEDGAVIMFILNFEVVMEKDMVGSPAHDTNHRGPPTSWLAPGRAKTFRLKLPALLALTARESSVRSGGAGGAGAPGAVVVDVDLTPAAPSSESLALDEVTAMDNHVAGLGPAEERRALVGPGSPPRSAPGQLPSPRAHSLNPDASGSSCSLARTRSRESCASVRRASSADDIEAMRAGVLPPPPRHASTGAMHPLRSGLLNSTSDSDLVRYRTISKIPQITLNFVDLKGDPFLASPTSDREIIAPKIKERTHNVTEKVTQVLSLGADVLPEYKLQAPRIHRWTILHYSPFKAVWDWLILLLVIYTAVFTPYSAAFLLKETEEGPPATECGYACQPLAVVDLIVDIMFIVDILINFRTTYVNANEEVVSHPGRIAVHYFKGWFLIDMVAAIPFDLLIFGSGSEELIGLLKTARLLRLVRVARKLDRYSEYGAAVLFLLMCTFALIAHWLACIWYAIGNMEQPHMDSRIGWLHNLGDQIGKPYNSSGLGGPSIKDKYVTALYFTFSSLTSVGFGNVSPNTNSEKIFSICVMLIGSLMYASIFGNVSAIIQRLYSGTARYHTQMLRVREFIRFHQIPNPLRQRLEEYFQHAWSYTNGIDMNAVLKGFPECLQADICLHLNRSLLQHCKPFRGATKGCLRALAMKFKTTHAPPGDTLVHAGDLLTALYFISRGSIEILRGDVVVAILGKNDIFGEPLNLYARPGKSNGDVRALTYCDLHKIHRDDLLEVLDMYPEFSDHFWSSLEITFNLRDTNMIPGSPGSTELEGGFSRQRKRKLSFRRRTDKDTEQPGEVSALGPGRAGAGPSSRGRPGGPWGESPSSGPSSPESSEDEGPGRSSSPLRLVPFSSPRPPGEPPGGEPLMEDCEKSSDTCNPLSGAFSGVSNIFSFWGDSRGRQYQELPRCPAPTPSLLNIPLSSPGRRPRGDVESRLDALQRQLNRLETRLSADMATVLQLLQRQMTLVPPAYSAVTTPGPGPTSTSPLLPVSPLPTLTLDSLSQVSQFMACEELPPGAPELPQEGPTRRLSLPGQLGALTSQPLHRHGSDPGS
- Assay procedure: hERG inhibition assay by automated patch-clamp electrophysiology in hERG-overexpressing HEK293 cells
- Type: cell-based
Metric: IC50 (µM)
# output: bare number, implied unit µM

Requested read-out: IC50. Entry: "C/C=C/C#CC#C/C=C/c1ccco1" 26.4

====

- Test system: Undifferentiated ReNcell VM cells
- Assay procedure: Neuronal viability assay, undifferentiated cells (resazurin)
- Type: cell-based, human
- Measurement parameters: Homo sapiens, ReNcell VM, 24 h, undifferentiated ReNcell VM cells, 24 h, resazurin assay, 0.01-100 μM; read-out: IC50, undifferentiated ReNcell VM cell viability
Metric: IC50 (µM)
# output: bare number, implied unit µM

Requested read-out: IC50. Entry: COc1cc(/C=C/C(=O)CC(=O)/C=C/c2ccc(O)c(OC)c2)ccc1O [CUR, Curcumin] 21.1
